- target-system: Ribonuclease T (Escherichia coli (strain K12)) (UniProt P30014)
- Sequence (P30014 whole entry): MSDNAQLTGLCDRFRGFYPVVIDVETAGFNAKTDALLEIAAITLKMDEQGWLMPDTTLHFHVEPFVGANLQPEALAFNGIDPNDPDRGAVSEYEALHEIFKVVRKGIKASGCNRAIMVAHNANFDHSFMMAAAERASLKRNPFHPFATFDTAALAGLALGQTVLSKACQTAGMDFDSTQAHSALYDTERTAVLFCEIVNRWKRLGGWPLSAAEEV
- experiment-summary: Inhibition of N-terminal His-tagged recombinant Escherichia coli K-12 RNase T exonuclease activity expressed in Escherichia coli BL21-CodonPlus(DE3)-RIPL preincubated for 10 mins followed by [gamma-32P]ATP labelled 11-nucleotide ssDNA substrate addition for 40 mins by PAGE based autoradiography
Kindly state INH for each of the entries shown.
One number for each entry, in mM.

Example molecules with recorded INH:
{"molecule": "O=C(O)c1cc2cccc([N+](=O)[O-])c2[nH]1", "unit-spec": "mM", "value-reported": 1}
{"molecule": "O=C(N[C@H](CC1CCCCC1)C(=O)O)OCC1c2ccccc2-c2ccccc21", "unit-spec": "mM", "value-reported": 1}
{"molecule": "O=S(=O)(O)c1cc(O)c2c(O)c(/N=N/c3cccc4ccccc34)c(S(=O)(=O)O)cc2c1", "unit-spec": "mM", "value-reported": 0.1}
{"molecule": "O=C(O)c1cc(SSc2ccc([N+](=O)[O-])c(C(=O)O)c2)ccc1[N+](=O)[O-]", "unit-spec": "mM", "value-reported": 0.1}
{"molecule": "O=C(O)c1ccc(Nc2nc(Cl)nc(Cl)n2)cc1-c1c2ccc(=O)cc-2oc2cc(O)ccc12", "unit-spec": "mM", "value-reported": 1}
{"molecule": "O=C(O)C1=CC(=C(c2ccc(O)c(C(=O)O)c2)c2ccc(O)c(C(=O)O)c2)C=CC1=O [AURINTRICARBOXYLIC ACID]", "unit-spec": "mM", "value-reported": 0.01}

Let us examine a further case.
**Query** Answer with the recorded INH of "O=C(O)CC(O)(CC(=O)O)C(=O)O" only.
**Result** 1

###

- Test system: Mammarenavirus lassaense
- experiment-summary: Inhibition of Lassa virus N-terminal His-tagged NP exonuclease domain (342 to 569 residues) expressed in Escherichia coli Tuner (DE3) using 3'-overhang 4-nucleotide stem-loop RNA preincubated for 10 mins followed by substrate addition measured after 60 mins by PAGE based […]
endpoint-name: INH (mM)
One number for each entry, in mM.

Example compounds with recorded INH:
{"compound": "O=S(=O)(O)c1cc(O)c2c(O)c(/N=N/c3cccc4ccccc34)c(S(=O)(=O)O)cc2c1", "endpoint-name": "INH", "unit-spec": "mM", "value-reported": 0.1}
{"compound": "O=C(O)c1ccc(Nc2nc(Cl)nc(Cl)n2)cc1-c1c2ccc(=O)cc-2oc2cc(O)ccc12", "endpoint-name": "INH", "unit-spec": "mM", "value-reported": 1}
{"compound": "O=C(O)c1cc(SSc2ccc([N+](=O)[O-])c(C(=O)O)c2)ccc1[N+](=O)[O-]", "endpoint-name": "INH", "unit-spec": "mM", "value-reported": 1}
{"compound": "O=C(N[C@H](CC1CCCCC1)C(=O)O)OCC1c2ccccc2-c2ccccc21", "endpoint-name": "INH", "unit-spec": "mM", "value-reported": 1}

Each compound below has a reported value. Please supply its INH.
1. O=C(O)c1cc2cccc([N+](=O)[O-])c2[nH]1
2. O=C(O)CC(O)(CC(=O)O)C(=O)O
3. O=C(O)C1=CC(=C(c2ccc(O)c(C(=O)O)c2)c2ccc(O)c(C(=O)O)c2)C=CC1=O [AURINTRICARBOXYLIC ACID]

**Result**
1: 1; 2: 1; 3: 0.01
